settings: 375 K; 101.33 kPa; Liquid; Laser flash apparatus
assay_metric: thermal conductivity (W/m/K)

Summary for this compound, CCCCCCCCCC(=O)OCC(COC(=O)CCCCCCCCC)OC(=O)CCCCCCCCC [1,2,3-propanetriyl tridecanoate] : thermal conductivity is 0.15

Entry CCCCCCCC(=O)OCC(COC(=O)CCCCCCC)OC(=O)CCCCCCC [1,2,3-propanetriol trioctanoate] ; thermal conductivity = 0.147

Reported thermal conductivity for CCCCCCCCCCCCCC(=O)OCC(COC(=O)CCCCCCCCCCCCC)OC(=O)CCCCCCCCCCCCC [1,2,3-propanetriyl tri(tetradecanoate)] was 0.168

# thermal conductivity of CCCCCCCCCCCC(=O)OCC(COC(=O)CCCCCCCCCCC)OC(=O)CCCCCCCCCCC [1,2,3-propanetriyl tridodecanoate] = 0.158

###

assay: molar heat capacity at constant pressure; conditions: 400 K; 101.33 kPa; Liquid; DSC
assay_metric: molar heat capacity at constant pressure (J/K/mol)

Recorded results for 2 compounds are shown here.
Lab book: molar heat capacity at constant pressure of CCCCCCCCCCCC(=O)OCC(COC(=O)CCCCCCCCCCC)OC(=O)CCCCCCCCCCC [1,2,3-propanetriyl tridodecanoate] noted as 1453

get_value(item= CCCCCCCCCC(=O)OCC(COC(=O)CCCCCCCCC)OC(=O)CCCCCCCCC [1,2,3-propanetriyl tridecanoate] , readout=molar heat capacity at constant pressure) returns 1228

(I) CCCCCCCC(=O)OCC(COC(=O)CCCCCCC)OC(=O)CCCCCCC [1,2,3-propanetriol trioctanoate]
(II) CCCCCCCCCCCCCC(=O)OCC(COC(=O)CCCCCCCCCCCCC)OC(=O)CCCCCCCCCCCCC [1,2,3-propanetriyl tri(tetradecanoate)]
Which value of molar heat capacity at constant pressure is greater, the one for I or the one for II ? Record your answer as the label of the chosen record.
II
(II: 1668 J/K/mol, I: 1030 J/K/mol)

###

assay: molar heat capacity at constant pressure; details: 380 K; 101.33 kPa; Liquid; DSC
assay_metric: molar heat capacity at constant pressure (J/K/mol)

Please fill in: molar heat capacity at constant pressure reported for CCCCCCCCCCCCCC(=O)OCC(COC(=O)CCCCCCCCCCCCC)OC(=O)CCCCCCCCCCCCC [1,2,3-propanetriyl tri(tetradecanoate)] = 1619

response.value for CCCCCCCCCC(=O)OCC(COC(=O)CCCCCCCCC)OC(=O)CCCCCCCCC [1,2,3-propanetriyl tridecanoate] (field: molar heat capacity at constant pressure) = 1203

molar heat capacity at constant pressure recorded for this compound, CCCCCCCC(=O)OCC(COC(=O)CCCCCCC)OC(=O)CCCCCCC [1,2,3-propanetriol trioctanoate] , is 1004

Recorded molar heat capacity at constant pressure (compound CCCCCCCCCCCC(=O)OCC(COC(=O)CCCCCCCCCCC)OC(=O)CCCCCCCCCCC [1,2,3-propanetriyl tridodecanoate] ): 1418

###

details: 410 K; 101.33 kPa; Liquid; Laser flash apparatus
assay_metric: thermal conductivity (W/m/K)

get_value(item= CCCCCCCCCCCCCC(=O)OCC(COC(=O)CCCCCCCCCCCCC)OC(=O)CCCCCCCCCCCCC [1,2,3-propanetriyl tri(tetradecanoate)] , readout=thermal conductivity) returns 0.164

response.value for CCCCCCCC(=O)OCC(COC(=O)CCCCCCC)OC(=O)CCCCCCC [1,2,3-propanetriol trioctanoate] (field: thermal conductivity) = 0.143

thermal conductivity measured on CCCCCCCCCCCC(=O)OCC(COC(=O)CCCCCCCCCCC)OC(=O)CCCCCCCCCCC [1,2,3-propanetriyl tridodecanoate] = 0.151

thermal conductivity reported for this molecule CCCCCCCCCC(=O)OCC(COC(=O)CCCCCCCCC)OC(=O)CCCCCCCCC [1,2,3-propanetriyl tridecanoate] : 0.144

###

assay: molar heat capacity at constant pressure; conditions: 390 K; 101.33 kPa; Liquid; DSC
assay_metric: molar heat capacity at constant pressure (J/K/mol)

Here is how some compounds turned out for molar heat capacity at constant pressure.
The reported molar heat capacity at constant pressure of the compound CCCCCCCCCC(=O)OCC(COC(=O)CCCCCCCCC)OC(=O)CCCCCCCCC [1,2,3-propanetriyl tridecanoate] was 1216

Measured molar heat capacity at constant pressure of CCCCCCCCCCCC(=O)OCC(COC(=O)CCCCCCCCCCC)OC(=O)CCCCCCCCCCC [1,2,3-propanetriyl tridodecanoate] : 1438

(P) CCCCCCCCCCCCCC(=O)OCC(COC(=O)CCCCCCCCCCCCC)OC(=O)CCCCCCCCCCCCC [1,2,3-propanetriyl tri(tetradecanoate)]
(Q) CCCCCCCC(=O)OCC(COC(=O)CCCCCCC)OC(=O)CCCCCCC [1,2,3-propanetriol trioctanoate]
Param pair: P , Q . Output: the one whose molar heat capacity at constant pressure is numerically greater. // output: label of the selected item
P

###

test: molar heat capacity at constant pressure; settings: 395 K; 101.33 kPa; Liquid; DSC
assay_metric: molar heat capacity at constant pressure (J/K/mol)

Kindly note the recorded molar heat capacity at constant pressure for CCCCCCCCCCCCCC(=O)OCC(COC(=O)CCCCCCCCCCCCC)OC(=O)CCCCCCCCCCCCC [1,2,3-propanetriyl tri(tetradecanoate)] , which is 1657

Consider CCCCCCCC(=O)OCC(COC(=O)CCCCCCC)OC(=O)CCCCCCC [1,2,3-propanetriol trioctanoate] . Its measured molar heat capacity at constant pressure is 1024

Lookup result for CCCCCCCCCCCC(=O)OCC(COC(=O)CCCCCCCCCCC)OC(=O)CCCCCCCCCCC [1,2,3-propanetriyl tridodecanoate] ; measured molar heat capacity at constant pressure: 1446

# compound CCCCCCCCCC(=O)OCC(COC(=O)CCCCCCCCC)OC(=O)CCCCCCCCC [1,2,3-propanetriyl tridecanoate] ; its molar heat capacity at constant pressure = 1222

###

conditions: 380 K; 101.33 kPa; Liquid; Laser flash apparatus
assay_metric: thermal conductivity (W/m/K)

Please fill in: thermal conductivity reported for CCCCCCCCCC(=O)OCC(COC(=O)CCCCCCCCC)OC(=O)CCCCCCCCC [1,2,3-propanetriyl tridecanoate] = 0.149

Looking up CCCCCCCCCCCCCC(=O)OCC(COC(=O)CCCCCCCCCCCCC)OC(=O)CCCCCCCCCCCCC [1,2,3-propanetriyl tri(tetradecanoate)] , I found its thermal conductivity recorded as 0.168

Note to self: thermal conductivity recorded for CCCCCCCC(=O)OCC(COC(=O)CCCCCCC)OC(=O)CCCCCCC [1,2,3-propanetriol trioctanoate] was 0.146

Form: compound = CCCCCCCCCCCC(=O)OCC(COC(=O)CCCCCCCCCCC)OC(=O)CCCCCCCCCCC [1,2,3-propanetriyl tridodecanoate] ; thermal conductivity = 0.158
